# System: DAPK2;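 note: kd values determined as follow-up on hits from a single-replicate KINOMEscan panel screen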
measure: Kd

Exam item: Endpoint output: Kd of Cc1nccc(-c2c(-c3ccc(F)cc3)ncn2CCCN2CCOCC2)n1.Cl . Value?
Marked response: > 10 µM

* * *

# System: CDK4-cyclinD1;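 note: KINOMEscan kinase panel screen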
# stated-conditions: concentration: 1 μM, replicates: in singlicate; n = 1
Consider the following molecules and their measured %Inh readings.
Numbers only; they are read as %.

Here is how some molecules turned out for %Inh.
molecule	measured-target	%Inh (%)
CNc1nc(-c2ccc3c(N)n[nH]c3c2)cc(N2C[C@@H](C(=O)NC3CCCCC3)OC[C@H]2C)n1 [GSK2375584]	CDK4-cyclinD1	3
O=C(Nc1n[nH]c2cc(-c3ccsc3)ccc12)C1CC1 [SB-732932]	CDK4-cyclinD1	14
CNc1cc(-c2ccc3c(N)n[nH]c3c2)nc(N)n1 [GSK2224810]	CDK4-cyclinD1	3
COc1ccc2cc(-c3nc(-c4ccccc4C(C)C)[nH]c3-c3ccncc3)ccc2c1 [SB-660566]	CDK4-cyclinD1	0

Pending molecule:
Exam item: Need %Inh of COc1ccc(CSc2nnc(-c3ccc4c(c3)CCO4)o2)cc1 , thanks.
Marked response: 0

Data credit: paper PMC5540273
